EC50 values for the molecules below.
target.or.test.system: particulate guanylyl cyclase receptor A (pGC-A) (Homo sapiens, UniProt P16066)
Sequence (P16066 33-1061): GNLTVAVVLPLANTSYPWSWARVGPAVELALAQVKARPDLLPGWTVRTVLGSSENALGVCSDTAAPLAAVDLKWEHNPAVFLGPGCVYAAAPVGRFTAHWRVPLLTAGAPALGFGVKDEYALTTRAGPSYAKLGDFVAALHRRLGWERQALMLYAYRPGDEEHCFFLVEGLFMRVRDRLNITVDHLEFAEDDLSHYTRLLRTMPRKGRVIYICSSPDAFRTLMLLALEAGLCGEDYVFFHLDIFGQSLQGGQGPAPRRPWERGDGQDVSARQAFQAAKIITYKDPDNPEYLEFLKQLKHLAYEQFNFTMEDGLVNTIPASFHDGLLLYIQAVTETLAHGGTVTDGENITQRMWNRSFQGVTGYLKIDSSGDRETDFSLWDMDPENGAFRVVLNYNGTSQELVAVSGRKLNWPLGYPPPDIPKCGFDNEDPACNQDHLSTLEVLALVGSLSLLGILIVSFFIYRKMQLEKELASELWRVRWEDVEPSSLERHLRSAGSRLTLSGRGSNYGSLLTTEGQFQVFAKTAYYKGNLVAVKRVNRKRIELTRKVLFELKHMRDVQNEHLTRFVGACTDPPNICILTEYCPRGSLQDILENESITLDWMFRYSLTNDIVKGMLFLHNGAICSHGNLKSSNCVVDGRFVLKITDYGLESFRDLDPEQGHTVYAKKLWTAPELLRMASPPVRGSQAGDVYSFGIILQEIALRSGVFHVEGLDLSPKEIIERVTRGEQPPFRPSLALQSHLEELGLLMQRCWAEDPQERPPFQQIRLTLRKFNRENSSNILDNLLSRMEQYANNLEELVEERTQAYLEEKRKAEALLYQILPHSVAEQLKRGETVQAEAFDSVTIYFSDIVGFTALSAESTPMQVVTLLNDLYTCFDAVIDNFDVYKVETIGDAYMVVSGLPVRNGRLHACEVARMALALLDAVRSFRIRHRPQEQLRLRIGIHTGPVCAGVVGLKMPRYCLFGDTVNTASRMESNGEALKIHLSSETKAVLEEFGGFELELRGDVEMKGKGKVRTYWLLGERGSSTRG
Sequence (P01160 124-151 partner limits assumed): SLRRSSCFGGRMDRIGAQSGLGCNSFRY
experimental.details: cGMP production by HTRF in HEK293 cells overexpressing pGC-A, with ANP
experimental.context: HEK293 cells overexpressing pGC-A; test compound plus EC20 concentration of ANP; cGMP by HTRF
measured.property: EC50

[[record]]
molecule = "CN(C)CCN[C@H]1CCC[C@H](C(=O)Nc2nc3c(F)cc(F)cc3s2)C1"
measured_value = "> 5 µM"

[[record]]
molecule = "CN(C)CCN1CCCC(C(=O)Nc2nc3cc(F)ccc3s2)C1 (stereo not drawn)"
measured_value = "> 10 µM"

[[record]]
molecule = "COc1ccccc1C(=O)Nc1nc2c(F)cc(F)cc2s1"
measured_value = "> 10 µM"

[[record]]
molecule = "Cc1cccc(-c2csc(NC(=O)C3CCCN(CCN(C)C)C3)n2)c1 (stereo not drawn)"
measured_value = "> 5 µM"

[[record]]
molecule = "O=C(Nc1nc2c(F)cc(F)cc2s1)C1CNCCO1 (stereo not drawn)"
measured_value = "> 5 µM"

[[record]]
molecule = "CN(C)CCN1CCCC(C(=O)Nc2nc3c(C(F)(F)F)cccc3s2)C1 (stereo not drawn)"
measured_value = "> 10 µM"

[[record]]
molecule = "COc1ccc2sc(NC(=O)C3CCCN(CCN(C)C)C3)nc2c1 (stereo not drawn)"
measured_value = "> 10 µM"

[[record]]
molecule = "CN(C)CCN1CCCC(C(=O)Nc2nc3cc(Cl)ccc3s2)C1 (stereo not drawn)"
measured_value = "> 10 µM"

[[record]]
molecule = "CN(C)CCN1CCCC(C(=O)Nc2nc(-c3cccc(Cl)c3)cs2)C1 (stereo not drawn)"
measured_value = "> 5 µM"

[[record]]
molecule = "COC(=O)c1cc(F)c2nc(NC(=O)C3CCCN(CCN(C)C)C3)sc2c1 (stereo not drawn)"
measured_value = "> 5 µM"

[[record]]
molecule = "O=C(Nc1nc2c(F)cc(F)cc2s1)C1CCC2CCC1N2 (stereo not drawn)"
measured_value = "0.3 µM"

[[record]]
molecule = "CN(C)CCN1CCCC(C(=O)Nc2nc(-c3ccccc3)cs2)C1 (stereo not drawn)"
measured_value = "> 5 µM"

